The following compounds were reported with IC50 values on 72 kDa type IV collagenase (Homo sapiens, UniProt P08253) in different studies.
Give the value, in units of µM, as a plain number.

Solved cases below.
// IC50 (72 kDa type IV collagenase (Homo sapiens, UniProt P08253)) for COc1ccc2cc(C#Cc3ccc(-c4ccc(S(=O)(=O)N[C@@H](CCSC)C(=O)O)cc4)cc3)ccc2c1 = 2.85

// IC50 (72 kDa type IV collagenase (Homo sapiens, UniProt P08253)) for O=C(O)[C@H](CO)NS(=O)(=O)c1ccc(-c2ccc(C#Cc3ccc4sccc4c3)cc2)cc1 = 0.494

// IC50 (72 kDa type IV collagenase (Homo sapiens, UniProt P08253)) for O=C(CC(CCn1nnc2ccccc2c1=O)C(=O)O)c1onc2cc(OCc3ccccc3)ccc12 (racemic) = 1.4

// IC50 (72 kDa type IV collagenase (Homo sapiens, UniProt P08253)) for CC(C)C[C@@H](NS(=O)(=O)c1ccc(-c2noc(-c3ccc(Cl)cc3)n2)cc1)C(=O)O = 0.0376

// IC50 (72 kDa type IV collagenase (Homo sapiens, UniProt P08253)) for O=C(CC(CCn1nnc2ccccc2c1=O)C(=O)O)c1cc2cc(OCCCc3ccccc3)ccc2o1 (racemic) = 3.3

// IC50 (72 kDa type IV collagenase (Homo sapiens, UniProt P08253)) for Cc1ccc(-c2ccc(-c3ccc(S(=O)(=O)N[C@@H](C(=O)O)C(C)C)cc3)s2)cc1 = 0.00612

// IC50 (72 kDa type IV collagenase (Homo sapiens, UniProt P08253)) for O=C(O)[C@@H](Cc1ccccc1)NS(=O)(=O)c1ccc(-c2noc(-c3ccc(Cl)cc3)n2)cc1 = 0.0139

// IC50 (72 kDa type IV collagenase (Homo sapiens, UniProt P08253)) for CC(O)(CS(=O)(=O)c1ccc(NC(=O)c2cccc([N+](=O)[O-])c2)cc1)C(=O)NO (centres unmarked) = 0.05

// IC50 (72 kDa type IV collagenase (Homo sapiens, UniProt P08253)) for Cc1cccn(CC2(c3ccc(Oc4ccccc4)cc3)NC(=O)NC2=O)c1=O (centres unmarked) = 29

// IC50 (72 kDa type IV collagenase (Homo sapiens, UniProt P08253)) for CC1c2ccc(C(C)(C)C)c(O)c2C(=O)C2=C(O)C3(O)C(=O)C(C(N)=O)=C(O)C(N(C)C)C3C(O)C21 (centres unmarked) = 186

New cases:
// IC50 (72 kDa type IV collagenase (Homo sapiens, UniProt P08253)) for O=C(Nc1ccc(-c2ccc(S(=O)(=O)N[C@H](Cc3ccccc3)C(=O)O)cc2)cc1)c1ccc(F)c(F)c1 = 0.139

// IC50 (72 kDa type IV collagenase (Homo sapiens, UniProt P08253)) for Cc1cccc(NC(=O)Nc2ccc(S(=O)(=O)CC(C)(O)C(=O)NO)cc2)c1 (centres unmarked) = 0.3
